# credit: paper PMC4646424

test.summary: Particle formation by dynamic light scattering
Format: physicochemical
run.conditions: dynamic light scattering, at the concentration detected
Entries and their DLS particle radius
Hi! Could you send only the number? It should be in nm, unit omitted.

Past entries and their recorded results:
{"compound": "COc1ccc(OC(C)C(=O)N(C)Cc2nc(-c3ccc(OC)cc3)no2)cc1 (stereo not drawn) [CHEMBL1508601]", "parameter.measured": "DLS particle radius", "units.of.measure": "nm", "reported.result": 62}
{"compound": "Nc1sc2c(c1C(=O)c1ccc(Cl)cc1)CCCC2 [CHEMBL57997]", "parameter.measured": "DLS particle radius", "units.of.measure": "nm", "reported.result": 270}
{"compound": "Cc1ccc(-c2noc(CN(C(=O)C(c3ccccc3)c3ccccc3)C(C)C)n2)cc1 [CHEMBL1304694]", "parameter.measured": "DLS particle radius", "units.of.measure": "nm", "reported.result": 456}
{"compound": "C=CCOC(=O)c1[nH]c2c(c1C)C(=O)CC(c1ccco1)C2 (stereo not drawn) [CHEMBL1359872]", "parameter.measured": "DLS particle radius", "units.of.measure": "nm", "reported.result": 405}
{"compound": "CN(CCC#N)C(=O)c1cc2c(s1)-c1ccccc1SC2 [CHEMBL1565380]", "parameter.measured": "DLS particle radius", "units.of.measure": "nm", "reported.result": 71}

Please give the measured DLS particle radius for this compound: CCOC(=O)c1c(-c2ccc(C)o2)csc1NC(=O)CSc1ncn[nH]1 [CHEMBL1347854]
115
